# assayTarget: Excitatory amino acid transporter 1 (Homo sapiens)
# Sequence (P43003 whole entry): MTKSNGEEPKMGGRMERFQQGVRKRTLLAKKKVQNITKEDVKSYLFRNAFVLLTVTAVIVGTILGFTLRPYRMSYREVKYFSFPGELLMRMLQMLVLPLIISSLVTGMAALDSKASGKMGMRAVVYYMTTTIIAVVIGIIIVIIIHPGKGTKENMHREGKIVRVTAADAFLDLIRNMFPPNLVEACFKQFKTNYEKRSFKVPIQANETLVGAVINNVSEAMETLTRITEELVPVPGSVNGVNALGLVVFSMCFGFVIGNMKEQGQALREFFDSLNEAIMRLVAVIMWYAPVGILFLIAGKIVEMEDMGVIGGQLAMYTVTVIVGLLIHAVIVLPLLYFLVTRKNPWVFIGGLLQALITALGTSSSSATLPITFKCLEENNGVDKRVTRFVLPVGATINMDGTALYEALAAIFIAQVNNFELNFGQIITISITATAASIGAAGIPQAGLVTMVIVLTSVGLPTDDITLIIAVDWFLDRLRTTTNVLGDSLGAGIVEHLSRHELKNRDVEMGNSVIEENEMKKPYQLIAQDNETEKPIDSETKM
# test: Inhibition of [3H]-D-aspartate uptake at human EAAT1 expressed in HEK293 cells after 6 mins by scintillation counting
# Assay type: cell-based
# measurementParameters: read-out: IC50
endpointName: IC50

Worked cases, answers included:
# compound, IC50
measured = [
    ("COc1ccc2c(C)c(-c3ccc(C4C(C#N)=C(N)OC5=C4C(=O)CC(c4ccccc4)C5)cc3)c(=O)oc2c1 (stereo unspecified)", "> 300 µM"),
    ("CCN(CC)c1ccc2c(C)c(-c3ccc(C4C(C#N)=C(N)OC5=C4C(=O)CC(c4ccccc4)C5)cc3)c(=O)oc2c1 (stereo unspecified)", "> 300 µM"),
    ("COc1ccc2c(C3C(C#N)=C(N)OC4=C3C(=O)CC(c3ccccc3)C4)cc(=O)oc2c1 (stereo unspecified)", "> 300 µM"),
    ("CCN(CC)c1ccc2c(C3CC(=O)C4=C(C3)OC(N)=C(C#N)C4C)cc(=O)oc2c1 (stereo unspecified)", "14 µM"),
]

Qu. Report IC50 for COc1ccc2c(C3CC(=O)C4=C(C3)OC(N)=C(C#N)C4C)cc(=O)oc2c1 (stereo unspecified)
Ans. 17 µM

Qu. Report IC50 for CCN(CC)c1ccc2c(C3C(C#N)=C(N)OC4=C3C(=O)CC(c3cccc5ccccc35)C4)cc(=O)oc2c1 (stereo unspecified)
Ans. > 300 µM

----------
# assayTarget: UniProtKB P43003
# test: Inhibition of [3H]-D-aspartate uptake at human EAAT1 expressed in HEK293 cells after 6 mins by scintillation counting
# Assay type: cell-based
# measurementParameters: read-out: pIC50 (converted)
endpointName: IC50

Worked cases, answers included:
# compound, endpointName, assayResult
measured = [
    ("COc1ccc2c(C3C(C#N)=C(N)OC4=C3C(=O)CC(c3ccccc3)C4)cc(=O)oc2c1 (stereo not given)", "IC50", "> 316 µM"),
    ("CCN(CC)c1ccc2c(C)c(-c3ccc(C4C(C#N)=C(N)OC5=C4C(=O)CC(c4ccccc4)C5)cc3)c(=O)oc2c1 (stereo not given)", "IC50", "> 316 µM"),
    ("COc1ccc2c(C)c(-c3ccc(C4C(C#N)=C(N)OC5=C4C(=O)CC(c4ccccc4)C5)cc3)c(=O)oc2c1 (stereo not given)", "IC50", "> 316 µM"),
    ("COc1ccc2c(C3CC(=O)C4=C(C3)OC(N)=C(C#N)C4C)cc(=O)oc2c1 (stereo not given)", "IC50", "16.2 µM"),
]

Qu. Report IC50 for CCN(CC)c1ccc2c(C3C(C#N)=C(N)OC4=C3C(=O)CC(c3cccc5ccccc35)C4)cc(=O)oc2c1 (stereo not given)
Ans. > 316 µM
